# systemTested: hMC-4R (Homo sapiens, UniProt P32245)
# Construct: expressed in transfected cells; host or cells: HEK293 cells (membrane preparations)
# Sequence (P32245 whole entry): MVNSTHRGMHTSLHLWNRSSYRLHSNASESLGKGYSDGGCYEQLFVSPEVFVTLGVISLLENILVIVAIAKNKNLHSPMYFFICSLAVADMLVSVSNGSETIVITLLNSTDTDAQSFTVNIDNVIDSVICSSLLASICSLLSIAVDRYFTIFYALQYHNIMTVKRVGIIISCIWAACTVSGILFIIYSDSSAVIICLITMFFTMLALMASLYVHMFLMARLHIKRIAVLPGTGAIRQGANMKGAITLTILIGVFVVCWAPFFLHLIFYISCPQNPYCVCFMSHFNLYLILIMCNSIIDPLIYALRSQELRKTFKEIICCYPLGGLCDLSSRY
# experimentalDetails: membrane binding assay, competition with fluorescence labeled NDP-alpha-MSH (fluorescence polarization)
# Experimental: A membrane binding assay is used to identify competitive inhibitors of fluorescence labeled NDP-alpha-MSH binding to HEK293 cell membrane preparations expressing human melanocortin receptors. The test compound or unlabeled NDP-alpha-MSH is dispensed at varying concentrations to a 384 well microtiter plate. Fluorescence labeled NDP-alpha-MSH is dispensed at a single concentration, followed by addition of membrane preparations. The plate is incubated for 5 h at room temperature. […]
pIC50: −log10 of the molar value.
Recorded pIC50, one value per entry.
experimentalEndpoint: pIC50

> print(dat)
                                    compound  experimentalendpoint  testvalue
 1  COc1ccc(C2(c3nc4ccc(C(=O)N(CCC(C)C)CCC(C)C)cc4n3CCCN3CCCC3)CC2)cn1                 pIC50     > 6.00
 2  CC(C)CCN(CCC(C)C)C(=O)c1ccc2nc(C3CCC(=O)N(C)C3)n(CCCN3CCCC3)c2c1 (stereo not drawn)                 pIC50     > 6.00
 3  CC(C)CCN(CCC(C)C)C(=O)c1ccc2nc(C3CCC(=O)NC3)n(CCCN3CCCC3)c2c1 (stereo not drawn)                 pIC50     > 6.00
 4  CC(C)CCN(CCC(C)C)C(=O)c1ccc2nc(C3CCN(C(=O)OC(C)(C)C)CC3)n(CCCN3CCCC3C)c2c1 (stereo not drawn)                 pIC50     > 7.00
 5  CC(C)CCN(CCC(C)C)C(=O)c1ccc2nc(CN3CCN(C(C)C)CC3)n(CCCN3CCCC3)c2c1                 pIC50     > 6.00
 6  CC(C)CCN(CCC(C)C)C(=O)c1ccc2nc(-c3ccc(=O)[nH]c3)n(CC(F)CN3CCCC3)c2c1 (stereo not drawn)                 pIC50     > 7.00
 7  CC(C)CCN(CCC(C)C)C(=O)c1ccc2nc(C3CCN(C)C(=O)C3)n(CCCN3CCCC3)c2c1 (stereo not drawn)                 pIC50     > 6.00
 8  CC(C)CCN(CCC(C)C)C(=O)c1ccc2nc(-c3cnc(O)nc3)n(CCCN3CCCC3)c2c1                 pIC50     > 6.00
 9  CCCCN(CCCC)C(=O)c1ccc2nc(CC3CCN(C)CC3)n(CCCN3CCCC3)c2c1                 pIC50     > 7.00
10  CC(C)CCN(CCC(C)C)C(=O)c1ccc2nc(C3CNC(=O)C3)n(CCCN3CCCC3)c2c1 (stereo not drawn)                 pIC50     > 7.00
11  CC(C)CCN(CCC(C)C)C(=O)c1ccc2nc(C3CCNCC3)n(CCCN3CCCC3)c2c1                 pIC50     > 7.00
12  CC(C)CCN(CCC(C)C)C(=O)c1ccc2nc([C@H]3CC[C@H](N(C)C)CC3)n(CCCN3CCCC3)c2c1                 pIC50     > 7.00
